# System: HeLa;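 also: Hoechst-stained nuclei counted by automated confocal imaging of four fields per well in 384-well plates, with the robust Z-score based on the per-plate DMSO median and robust SD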
# PROCEDURE SUMMARY: nuclear count per well, robust Z-score vs DMSO; higher = more cells (less toxicity)
# CONDITION NOTES: 10 µM; 6 h
Structures can show the parent of a compound that is named as a salt.
Threshold rule: nuclear count per well greater than or equal to 0.4 is True; below that, False.

[
  {
    "MOLECULE": "C/C(=C\\C(=O)OCCCCCCCCC(=O)O)C[C@@H]1OC[C@H](C[C@@H]2O[C@H]2[C@@H](C)[C@H](C)O)[C@@H](O)[C@H]1O",
    "LABEL": "False"
  },
  {
    "MOLECULE": "CCOc1ccccc1OCCN[C@H](C)Cc1ccc(OC)c(S(N)(=O)=O)c1",
    "LABEL": "False"
  },
  {
    "MOLECULE": "COc1cc2nc(N3CCN(C(=O)C4COc5ccccc5O4)CC3)nc(N)c2cc1OC (stereo not drawn) [Doxazosin Mesylate]",
    "LABEL": "True"
  }
]

Answer whether nuclear count per well of O=c1cc(N2CCOCC2)oc2c(-c3ccccc3)cccc12 [LY-294,002 hydrochloride] is greater than or equal to 0.4.
False

Proceed to CO[C@H]1C[C@@H]2CC[C@@H](C)[C@@](O)(O2)C(=O)C(=O)N2CCCC[C@H]2C(=O)O[C@H]([C@H](C)C[C@@H]2CC[C@@H](O)[C@H](OC)C2)CC(=O)[C@H](C)/C=C(\C)[C@@H](O)[C@@H](OC)C(=O)[C@H](C)C[C@H](C)/C=C/C=C/C=C/1C
True

Field entry: COc1cc2nc(N(C)CCCNC(=O)C3CCCO3)nc(N)c2cc1OC (stereo not drawn)
True

Then what about the molecule CC(C)(O/N=C(\C(=O)N[C@@H]1C(=O)N2C(C(=O)[O-])=C(C[n+]3ccccc3)CS[C@H]12)c1csc(N)n1)C(=O)O ?
True
